# growth listing for each entry below
- System: U251 CNS
- experimental-protocol: NCI-60 one-dose screen, 48 h (100 = growth as untreated, 0 = no growth, -100 = all killed)
- measurement-parameters: 10 µM unless noted
The panel holds about 83,000 compounds, 20% with a hit somewhere; the sample as a whole holds those more often.

compound: CCN1CCN(c2cc(C)nc(N(CCCNc3ccnc4cc(Cl)ccc34)Cc3cccs3)n2)CC1
measurement-unit: %
growth: 0.735

compound: COc1cc2ncnc(Nc3ccc(O)cc3)c2cc1OC
measurement-unit: %
growth: 83.6

compound: CCN(CC)CCOc1ccc(/C(=C(\C)c2ccc(Cl)cc2)c2ccc(Cl)cc2)cc1
measurement-unit: %
growth: 54

compound: COc1cc2c(cc1OCCCCCN1CCN(c3ncnc4ccccc34)CC1)N=CC1CCCN1C2=O (centres undefined)
measurement-unit: %
growth: 2.18

compound: CCCNC(=O)c1cn2ncnc(Nc3cc(C(=O)NC4CC4)ccc3C)c2c1C
measurement-unit: %
growth: 77.2

compound: C/C(=C(/c1ccc(Cl)cc1)c1ccc(OCCN2CCCC2)cc1)c1ccccc1
measurement-unit: %
growth: 63.9

compound: CCOC(=O)C1=C(C)N=C2Sc3cc(OC(F)(F)F)ccc3N2[C@H]1c1ccccn1
measurement-unit: %
growth: 23.1

compound: COc1ccc(Br)cc1NC(=O)Nc1cccc2c1ccn2Cc1ccnc(N)c1
measurement-unit: %
growth: 13.9

compound: CC(=O)C1=C(C)NC(SCc2nnc(-c3ccc(C)cc3)o2)=NC1c1ccc(F)cc1 (centres undefined)
measurement-unit: %
growth: 95.2

compound: Clc1ccc(Nc2nccc(Nc3ccc4[nH]ncc4c3)n2)cc1
measurement-unit: %
growth: 58.8

compound: O=C(NC1CCNCC1)c1[nH]ncc1NC(=O)c1c(Cl)cccc1Cl
measurement-unit: %
growth: 4.47

compound: N#CC1(C#N)C(c2cccs2)NC(c2cccs2)C1(C#N)C#N (centres undefined)
measurement-unit: %
growth: 104

compound: N#Cc1c(-c2ccc(C(F)(F)F)cc2)c(F)c(NCCC2CCC(O)C2)n2c1nc1ccccc12 (centres undefined)
measurement-unit: %
growth: 61.4

compound: CCCCCC(=O)OCc1ccc(Cl)c(Cl)c1
measurement-unit: %
growth: 98.2

compound: Cc1ccc(-n2nc(C(C)(C)C)cc2NC(=O)NCc2cc(F)ccc2Oc2ccc3c(cnn3CCO)c2)cc1
measurement-unit: %
growth: 31.3

compound: Cc1cc2c(-c3nc4ccccn4c3NC3CCCCC3)c(O)c(O)cc2c(O)c1-c1c(C)cc2c(-c3nc4ccccn4c3NC3CCCCC3)c(O)c(O)cc2c1O
measurement-unit: %
growth: 19.8

compound: CNC(=O)c1nn(C)c2c1C(C)(C)Cc1cnc(Nc3ccc(N4CCN(C)CC4)cc3)nc1-2
measurement-unit: %
growth: 8.54

compound: O=C(CNc1nc2ccccc2s1)Nc1ccc(-c2nc3ccccc3s2)cc1
measurement-unit: %
growth: 89.1

compound: CCN(CC)CCNc1ccc(N=Nc2cnc3ccccc3c2)c2ccccc12
measurement-unit: %
growth: -76.9

compound: CC1(/C=N/NC(N)=S)NC(=O)NC1=O (centres undefined)
measurement-unit: %
growth: 94.5

compound: COc1cc(Nc2ncc(F)c(Nc3ccc4c(n3)N(COP(=O)(O)O)C(=O)C(C)(C)O4)n2)cc(OC)c1OC
measurement-unit: %
growth: 29.5

compound: COc1ccc(-c2ccc3ncc4c(c3c2)n(-c2ccc(N3CCNCC3)c(C(F)(F)F)c2)c(=O)n4C)cn1
measurement-unit: %
growth: -85.5

compound: CN1CCC(COc2cnc(-c3cccc(Cn4nc(-c5cccc(C#N)c5)ccc4=O)c3)nc2)CC1
measurement-unit: %
growth: 16.4

compound: CC#CC(=O)N1CCC[C@H]1c1nc(-c2ccc(C(=O)Nc3ccccn3)cc2)c2c(N)nccn12
measurement-unit: %
growth: 83.6

compound: Cc1cccc(NC(=O)[C@@H]2c3ccccc3C(=O)N(c3ccc(Cl)cc3)[C@H]2c2ccc(Cl)cc2)n1
measurement-unit: %
growth: 43.1

compound: CC(CCCC(=O)O)c1ccoc1 (centres undefined)
measurement-unit: %
growth: 109

compound: O=C1C=CC2(NN=C(c3ccccc3)N2c2ccccc2)c2cccc(O)c21 (centres undefined)
measurement-unit: %
growth: 11.2

compound: CCOc1cc2ncc(C#N)c(Nc3ccc(F)c(Cl)c3)c2cc1NC(=O)/C=C/CN(C)C
measurement-unit: %
growth: -70.9

compound: Oc1ccc(C(c2ccc(O)cc2)C(Cl)(Cl)Cl)cc1
measurement-unit: %
growth: 106

compound: CCN1CCN(c2nc(C)cc(N(CCCNc3ccnc4cc(Cl)ccc34)Cc3ccc4c(c3)OCO4)n2)CC1
measurement-unit: %
growth: -73.7

compound: Cn1ccnc1C(=O)/C=C/c1ccc(CC(=O)Nc2ccc(C(F)(F)F)cc2)cc1
measurement-unit: %
growth: -20

compound: C[C@@H](C[C@H](CCO)c1cc(C(F)(F)F)cc(C(F)(F)F)c1)c1ccc2ccccc2c1
measurement-unit: %
growth: 91.5

compound: COc1cc2ncnc(Oc3cccc(NC(=O)Nc4cc(C(C)(C)C(F)(F)F)on4)c3)c2cc1OC
measurement-unit: %
growth: 50.8

compound: COc1cc(N2CCC(N(C)C)CC2)ccc1Nc1ncc(Cl)c(Nc2ccccc2P(C)(C)=O)n1
measurement-unit: %
growth: 5.24

compound: Cc1cc(Nc2cc(N3CCN(C)CC3)nc(Sc3ccc(NC(=O)C4CC4)cc3)n2)n[nH]1
measurement-unit: %
growth: 30

compound: CN1CCN(c2nc(NCCNc3ccnc4cc(Cl)ccc34)c3ccccc3n2)CC1
measurement-unit: %
growth: 9.01

compound: COc1cc2nc(Nc3cccc(Cl)c3)nc(N)c2cc1OC
measurement-unit: %
growth: 66.4

compound: CCc1nc2cc(/C=C/C(=O)NO)c(F)cc2c(=O)n1CCc1ccccc1
measurement-unit: %
growth: 1.61

compound: C=CC[n+]1c(/C=C/C=C2\N(C)c3ccccc3C2(C)C)sc2ccc(OC)cc21
measurement-unit: %
growth: 15.9

Data origin, for the record: PubChem BioAssay (NCI)
